# Test system: U251 CNS
# protocol notes: NCI-60 one-dose screen, 48 h (100 = growth as untreated, 0 = no growth, -100 = all killed)
# measurement parameters: 10 µM unless noted
About 83,000 compounds went through this panel and 20% of them were active in at least one assay; those are over-represented in the sample as a whole.
Here the recorded growth is given for each entry.

{"molecule": "Clc1ccccc1/C=N\\Nc1ccccn1", "target or system": "U251 CNS", "growth [%]": 95.4}
{"molecule": "CCOC(=O)C(=Cc1ccccc1[N+](=O)[O-])C(=O)OCC", "target or system": "U251 CNS", "growth [%]": 23.4}
{"molecule": "CCOC(=O)CC(c1ccccc1)C(C#N)c1ccccc1 (stereo not given)", "target or system": "U251 CNS", "growth [%]": 97.6}
{"molecule": "CCCCCCCCCN(CCCCCCCCC)C(C)C(=O)c1ccc2cc(Br)c3ccccc3c2c1 (stereo not given)", "target or system": "U251 CNS", "growth [%]": 70.9}
{"molecule": "Cn1cc(-c2noc(-c3cn(C)c4ncccc34)n2)c2cc(Cl)ccc21", "target or system": "U251 CNS", "growth [%]": 95.6}
{"molecule": "CCOc1ccc2sc(NS(=O)(=O)c3ccc(N)cc3)nc2c1", "target or system": "U251 CNS", "growth [%]": 99.5}
{"molecule": "Cc1ccc2c(c1)/C(=N\\N=C/c1cn(C(C)C)c3ccccc13)C(=O)N2", "target or system": "U251 CNS", "growth [%]": 63.6}
{"molecule": "NC(=O)c1c(NC(=O)COC(=O)Cc2ccccc2F)sc2c1CCC2", "target or system": "U251 CNS", "growth [%]": 101}
{"molecule": "CCOC(=O)COc1c(C)cc(SSc2cc(C)c(OCC(=O)OCC)c(C)c2)cc1C", "target or system": "U251 CNS", "growth [%]": 75.4}
{"molecule": "O=C(N/N=C1\\c2ccccc2-c2cccc(C(=O)O)c21)c1ccc(O)cc1", "target or system": "U251 CNS", "growth [%]": 101}

---

# Test system: SF-539 CNS
# protocol notes: NCI-60 one-dose screen, 48 h
# measurement parameters: 10 µM unless noted
This is part of a sample that, as a whole, favours compounds with a hit. Of some 83,000 tested, about 20% had one in any assay. The source made the active and inactive calls. Rule for the calls: active = growth percent below 10; inactive = the rest.
Outcome codes: active, inactive

{"molecule": "Cc1ccc(S(=O)(=O)N/N=C2\\CC3CCC2(C)C3(C)C)cc1 (stereo not given)", "group": "inactive"}
{"molecule": "Nc1cc(Cl)cc2cccnc12", "group": "inactive"}
{"molecule": "Cc1nc(Cl)cc(N(c2cc(Cl)nc(C)n2)c2ncc(C(=O)Nc3c(C)cccc3Cl)s2)n1", "group": "inactive"}
{"molecule": "COc1ccc(/C=C/C(=C/c2c(O)[nH]c3cc(Br)ccc23)N=O)cc1", "group": "inactive"}
{"molecule": "Cn1cc(-c2nnc(-c3cn(C)c4ncccc34)o2)c2ccccc21", "group": "inactive"}
{"molecule": "c1cc2ccc1CNCCN1CCNCc3ccc(cc3)Oc3ccc(cc3)CNCCN(CCNCc3ccc(cc3)O2)CCNCc2ccc(cc2)Oc2ccc(cc2)CNCC1", "group": "active"}
{"molecule": "Cc1cccc(/C=C2\\N=C(c3ccccc3)N(c3ccc(S(N)(=O)=O)cc3)C2=O)c1", "group": "inactive"}
{"molecule": "C=C(C)[C@@H]1CC[C@]2(C(=O)NCCCN)CC[C@]3(C)[C@H](CC[C@@H]4[C@@]5(C)CC[C@H](O)C(C)(C)[C@@H]5CC[C@]43C)[C@@H]12", "group": "active"}
{"molecule": "CC(=O)OC[C@]12CC[C@@H](C(=O)CBr)[C@@H]1[C@H]1CC[C@@H]3[C@@]4(C)CCCNC(C)(C)[C@@H]4CC[C@@]3(C)[C@]1(C)CC2", "group": "active"}
{"molecule": "CC(=O)n1cc(C=O)c2ccccc21", "group": "inactive"}
{"molecule": "O=C1Nc2ccccc2/C1=C/C(=O)c1ccc(N2CCCCC2)cc1", "group": "inactive"}
{"molecule": "N#Cc1c(Cl)nc(SCC2CO2)nc1-c1ccccc1 (stereo not given)", "group": "inactive"}
{"molecule": "O=c1[nH]c(CN2CCN(c3cccc(Cl)c3)CC2)nc2cc(Cl)ccc12", "group": "inactive"}
{"molecule": "Cc1cnc(N)nc1OCCNC(=O)c1cccc(-c2ccc(S(=O)(=O)Nc3ccc4c(c3)N(C(=O)C3CC3)CCC4)cc2)c1", "group": "inactive"}
{"molecule": "Nc1nc(Nc2ccccc2)c2ncn(Cc3ccc4c(c3)OCO4)c2n1", "group": "inactive"}
{"molecule": "Cc1nc(-c2ccccc2)sc1CC#N", "group": "inactive"}
{"molecule": "CCn1cc(-c2cc(-c3ccc(Cl)cc3)nc(N)n2)c(-c2ccc(Br)cc2)n1", "group": "inactive"}
{"molecule": "COc1ccc(C2CC(c3ccc4ccccc4c3)=NN2c2nc(O)c(C3=c4cc(OC)ccc4=NC3=O)s2)cc1 (stereo not given)", "group": "active"}
{"molecule": "ClC1=C(Cl)C(Cl)=C(Cl)C1=Cc1ccccc1", "group": "active"}
{"molecule": "CCN(CC)CCCNCc1cc(-c2ccccc2)nc2ccccc12", "group": "inactive"}
{"molecule": "CC(C)C1=NOC(=O)C1=Cc1cn(-c2ccco2)nc1-c1ccccc1", "group": "inactive"}
{"molecule": "CC1(C)CC[C@]23CC[C@]4(C)[C@H](CC[C@@H]5[C@@]6(C)C/C(=C/c7ccncc7)C(=O)C(C)(C)[C@@H]6CC[C@]54C)[C@H]2[C@H]1OC3=O", "group": "active"}
{"molecule": "C=C(C)[C@@H]1CC[C@]2(C(N)=O)CC[C@]3(C)[C@H](CC[C@@H]4[C@@]5(C)C/C(=C/c6cccnc6)[C@H](O)C(C)(C)[C@@H]5CC[C@]43C)[C@@H]12", "group": "inactive"}
{"molecule": "Cc1cc(C)nc(SCC(=O)Nc2cccc(N=Cc3ccccc3O)c2)n1", "group": "inactive"}
{"molecule": "N/C(=N\\c1nc2ccccc2[nH]1)NC(=O)Cc1cccc2ccccc12", "group": "inactive"}

---

# Tested on: SF-268 CNS
# protocol notes: NCI-60 one-dose screen, 48 h
# measurement parameters: 10 µM unless noted
Compounds without any hit were thinned out: in the full panel of roughly 83,000, 20% have a hit. Calls of active or inactive are those of the source. How the source made its calls: active means growth percent below 10; inactive means the rest.
Outcome codes: y (active), n (inactive)

{"compound": "C=C(C)[C@@H]1CC[C@]2(C(N)=O)CC[C@]3(C)[C@H](CC[C@@H]4[C@@]5(C)C/C(=C/c6cccnc6)C(=O)C(C)(C)[C@@H]5CC[C@]43C)[C@@H]12", "group": "n"}
{"compound": "O=C(Nc1ccc(Oc2ccc(F)cc2)c(Cl)c1)c1cccnn1", "group": "n"}
{"compound": "CCN(CC)CCSC(=O)C(O)(c1ccccc1)C1CCCC1 (centres undefined)", "group": "n"}
{"compound": "O=C(Nc1cc(F)cc2cccnc12)c1cnc(N2CCNCC2)cn1", "group": "n"}
{"compound": "COc1cc(/C=C/C(=O)/C=C/c2ccc(-n3ccnc3)cc2)ccc1O", "group": "n"}
{"compound": "O=C(OCc1ccc2c(Cl)cc(Cl)c(O)c2n1)N1CCNCC1", "group": "n"}
{"compound": "COc1cc(-c2nc(SCCC(C)C)nc(Nc3ccc(S(N)(=O)=O)cc3)c2C#N)cc(OC)c1OC", "group": "n"}
{"compound": "O=C1CC(c2ccccc2)Cc2nc3ccc(Br)cc3cc21 (centres undefined)", "group": "n"}
{"compound": "CN(C)CCOc1ccc(/C(=C(/CCCl)c2ccccc2)c2ccccc2)cc1", "group": "n"}
{"compound": "CCN(CC)c1ccc(/C=C/C=C2\\NC(=O)NC2=O)cc1", "group": "n"}
{"compound": "C#C[C@]1(O)CC[C@H]2[C@@H]3CC=C4c5nc(Nc6ccc(OC)cc6OC)sc5CC[C@]4(C)[C@H]3CC[C@@]21C", "group": "y"}
{"compound": "Cc1cnc(N)nc1OCC(C)(C)CNC(=O)c1cccc(-c2ccc(S(=O)(=O)Nc3ccc4c(c3)N(C(=O)C3CC3)CCC4)cc2)c1", "group": "n"}
{"compound": "CC(C)=CC/C=C(/C)[C@H]1CC[C@]2(C)[C@@H]1CC[C@@H]1[C@@]3(C)CCC(=O)NC(C)(C)[C@@H]3CC[C@]12C", "group": "n"}
{"compound": "C[C@H]1[C@H](C)CC[C@]2(COC(=O)CCC(=O)O)CC[C@]3(C)C(=CC[C@@H]4[C@@]5(C)CCCNC(C)(C)[C@@H]5CC[C@]43C)[C@H]12", "group": "n"}
{"compound": "Cc1cc(C)c(-c2cc(O)c(-c3c(C)cc(C)cc3C)cc2O)c(C)c1", "group": "n"}
{"compound": "CC(C)OC(=O)Nc1cc(F)c(F)cc1F", "group": "n"}
{"compound": "Cc1cccc(C[C@H](NC(=O)Nc2ccc(Cl)cc2F)C(=O)N[C@@H]2C(=O)N3C[C@H](OC(=O)CCN(C)C)C[C@H]3C(=O)N3CCCC[C@H]3C(=O)N[C@@H](C)C(=O)N3C[C@H](C)C[C@H]3C(=O)O[C@H]2C)c1", "group": "n"}
{"compound": "COc1c(C(C)=O)c(OCCCCOc2c(C(C)=O)c(OC)c3ccoc3c2OC)c(OC)c2occc12", "group": "n"}
{"compound": "CCOC(=O)c1nn(C2CCCCO2)c2ccc(NC(=O)CN3CCOCC3)cc12 (centres undefined)", "group": "n"}
{"compound": "Cc1ccc(Cn2c(O)c(N=NC(=O)c3ccc(S(N)(=O)=O)cc3)c3ccccc32)cc1", "group": "n"}
{"compound": "O=C(Nc1ccc(Oc2ccc(F)cc2)c(Cl)c1)c1cnccn1", "group": "n"}
{"compound": "Cc1ccc(-c2cc(O)c(-c3ccc(C)cc3C)cc2O)c(C)c1", "group": "n"}
{"compound": "CN(C)c1cc(NN=C(c2ccc(O)cc2)c2ccc(O)cc2)c([N+](=O)[O-])cc1[N+](=O)[O-]", "group": "n"}
{"compound": "O=C(CCN1CCCCC1)c1ccc(Cl)cc1", "group": "n"}
